# Tested on: rat chronic carcinogenicity bioassay, TD50
# test-protocol: DSSTox (CPDBAS) Carcinogenic Potency Database Summary Rat Bioassay Results
# condition-info: TD50_Rat_Note: positive test results only by intraperitoneal or intravenous injection; TargetSites_Rat_Female: uterus; stronger effect = lower value

| compound | Potency |
| --- | --- |
| O=P1(NCCCl)OCCCN1CCCl (configuration not stated) | 0.739 mg/kg/day |
| CC(CN1CC(=O)NC(=O)C1)N1CC(=O)NC(=O)C1 (configuration not stated) | 10.7 mg/kg/day |

----------
# Test system: rat chronic carcinogenicity bioassay, TD50
# test-protocol: DSSTox (CPDBAS) Carcinogenic Potency Database Summary Rat Bioassay Results
# condition-info: TD50_Rat_Note: TD50 is harmonic mean of more than one positive test; TargetSites_Rat_Female: mammary gland; stronger effect = lower value
# Description: The Carcinogenic Potency Database (CPDB) is a unique and widely used international resource of the results of over 6500 chronic, long-term animal cancer tests on over 1500 chemical substances. The CPDB provides easy access to the bioassay literature, with qualitative and quantitative analyses of both positive and negative experiments that have been published over the past 50 years in the general literature and by the National Cancer Institute/National Toxicology Program. […]
The compounds listed here are annotated with their Potency.

| molecular-string | subject-of-test | Potency |
| --- | --- | --- |
| NNc1nc(-c2ccc([N+](=O)[O-])cc2)cs1 | rat chronic carcinogenicity bioassay, TD50 | 3.21 mg/kg/day |
| CCNC(=O)N(CCO)N=O | rat chronic carcinogenicity bioassay, TD50 | 0.562 mg/kg/day |
| NNC(=O)c1ccncc1 | rat chronic carcinogenicity bioassay, TD50 | 150 mg/kg/day |
| C=CC(=C)C | rat chronic carcinogenicity bioassay, TD50 | 313 mg/kg/day |
| Nc1ccc(-c2ccc(N)c(Cl)c2)cc1Cl | rat chronic carcinogenicity bioassay, TD50 | 28.1 mg/kg/day |
| ClCCl | rat chronic carcinogenicity bioassay, TD50 | 724 mg/kg/day |
| C=C(Cl)CSC(=S)N(CC)CC | rat chronic carcinogenicity bioassay, TD50 | 26.1 mg/kg/day |
| CC(=O)Nc1nc(-c2ccc([N+](=O)[O-])o2)cs1 | rat chronic carcinogenicity bioassay, TD50 | 17.8 mg/kg/day |

The values you see were collected from PubChem BioAssay AID1208.
